Please respond with reported cell viability for every item in the list.
test system: MARIMO; assay: cell viability relative to vehicle control; higher = less cytotoxic; settings: 10 µM; SRSF2 genotype: SRSF2 P95H/wt;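 note: after 48 h exposure read by CellTiter-Glo luminescence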
Counter-ions that a name gives are not always drawn.
Be sure to follow the number with its unit.

Specify measured cell viability for O=C(NC1CCN(CCCCC2(C(=O)NCC(F)(F)F)c3ccccc3-c3ccccc32)CC1)c1ccccc1-c1ccc(C(F)(F)F)cc1 [Lomitapide Mesylate] .
0.5%

Dear colleague, please send me the reported cell viability for `C=C1CCC[C@]2(C)Cc3occ(C)c3C[C@@H]12` when you can.
98.4%

Find the measured cell viability of `C#C[C@]1(O)CC[C@H]2[C@@H]3CCC4=CCCC[C@@H]4[C@H]3C(=C)C[C@@]21CC` and report it.
75.4%

Query cell viability for `CC(C)c1cc2c(c(O)c1O)[C@@]13CCCC(C)(C)[C@@H]1C[C@@H]2OC3=O`
4.39%

Let me know recorded cell viability for `CCC(CC)n1ccc2c(C(=O)NCc3c(C)cc(C)[nH]c3=O)cc(C#N)cc21` , thanks.
103%

Please give measured cell viability of the following entry: COc1ccc(C2CNC(=O)C2)cc1OC1CCCC1 (stereo not drawn) [S-(+)-Rolipram]
102%

Return cell viability (reported value) for this molecule: `NS(=O)(=O)NCCNc1nonc1/C(=N/O)Nc1ccc(F)c(Br)c1`
102%

Give reported cell viability value for `O=C(O)CCn1c(O)c(C2=c3cc(Cl)ccc3=NC2=O)sc1=S`
84.1%

Provide only the value of recorded cell viability for C/C(O)=C(\C#N)C(=O)Nc1ccc(C(F)(F)F)cc1 [Teriflunomide]
94.3%
